Below: a set of entries, each annotated with reported %Inh.
Test system: MKNK1
Conditions: concentration: 1 μM, replicates: in singlicate; n = 1;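 further: KINOMEscan kinase panel screen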
Report only the number, with the unit % understood.

Past entries and their recorded results:
molecule: c1ccc(-c2cnc3nccnn23)cc1 [AH20685]
value observed: 2
--
molecule: CCS(=O)(=O)c1ccc(OC)c(Nc2nccc(-c3c(-c4cccc(NC(=O)c5c(F)cccc5F)c4)nn4ncccc34)n2)c1 [GSK326180]
value observed: 3
--
molecule: Cc1cccc(NC(=O)Nc2ccc(Oc3ncnc4ccn(C)c34)cc2)c1
value observed: 3
--
molecule: Cl.c1ccc(-c2ccc3c(Nc4ccc5[nH]ncc5c4)ccnc3c2)nc1 [GW440137]
value observed: 5
--
molecule: O=C(Nc1cccc(Oc2ccc3nc(NC(=O)C4CC4)cn3n2)c1)c1ccccc1C(F)(F)F
value observed: 0

Report %Inh for COC(=O)Nc1nc2cc(Oc3ccc(NC(=O)Nc4cc(C(F)(F)F)ccc4F)cn3)ccc2[nH]1.Cl.Cl [GW681170] please.
36

# iterate: O=C(O)C(F)(F)F.O=C(O)C(F)(F)F.O=c1[nH]ccc2nc(N[C@@H]3CCCNC3)nc(Nc3ccc(S(=O)(=O)N4CCOCC4)cc3)c12 [GSK2177277]
7

# iterate: O=c1[nH]cc(-c2ccc(N3CCOCC3)cc2)c2sc(-c3cn[nH]c3)cc12 [GSK2276055]
0

---

Test system: PFTAIRE2
Settings: concentration: 1 μM, replicates: in singlicate; n = 1
API: label(entry) gives Yes if the entry's %Inh is strictly smaller than 7%; on equality or larger values it gives No.

compound: O=c1[nH]cc(-c2ccc(N3CCOCC3)cc2)c2sc(-c3cn[nH]c3)cc12
category label: No

compound: Cl.Cl.NCC(NC(=O)c1cc(-c2ccccc2)c(-c2ccnc3[nH]ccc23)s1)c1ccccc1 (centres unmarked)
category label: Yes

Lab note: %Inh threshold 7%. Does this compound come in strictly under it? Cl.Cl.NCC(C(=O)Nc1cc(Br)c(-c2ccnc3[nH]ccc23)s1)c1ccccc1 (centres unmarked)
No

# iterate: COc1cc(Nc2nccc(N3CCC(NC(=O)Nc4cccc(C(C)=O)c4)C3)n2)cc(OC)c1OC (centres unmarked)
Yes

# iterate: COc1cccc(C2=C(Nc3ccc(Cl)c(C(=O)O)c3)C(=O)NC2=O)c1
Yes

# iterate: C[C@@H](Oc1cc(-n2cnc3cc(-c4ccnc(NCCS(C)(=O)=O)c4)ccc32)sc1C(N)=O)c1ccccc1Cl
No

# iterate: COc1cc(Nc2ncc3c(C)nc(-c4cc5ccccc5[nH]4)n3n2)cc(OC)c1OC
Yes

---

Test system: PIK4CB
Construct: gene PI4KB
Conditions: concentration: 1 μM, replicates: in singlicate; n = 1
assay metric: %Inh (%)
Report only the number, with the unit % understood.

compound: Cl.c1ccc(-c2ccc3c(Nc4ccc5[nH]ccc5c4)ccnc3c2)nc1
target or system: PIK4CB
assay metric: %Inh
value observed: 0
--
compound: COc1cc(Nc2nccc(-c3c(-c4cccc(NC(=O)c5c(F)cccc5F)c4)nn4ccccc34)n2)cc(OC)c1OC
target or system: PIK4CB
assay metric: %Inh
value observed: 11
--
compound: CC(C)c1nc(-c2cccc(NS(=O)(=O)c3c(F)cccc3F)c2F)c(-c2ccnc(Nc3ccc(N4CCOCC4)nc3)n2)s1
target or system: PIK4CB
assay metric: %Inh
value observed: 0
--
compound: COc1cc(Nc2nccc(N3CCC(NC(=O)c4cc5ccccc5s4)C3)n2)cc(OC)c1OC (stereo not shown)
target or system: PIK4CB
assay metric: %Inh
value observed: 0
--
compound: Cc1ccc(C(=O)Nc2ccc(Nc3ccnc4cc(-c5nccs5)ccc34)cc2O)cc1.Cl
target or system: PIK4CB
assay metric: %Inh
value observed: 30
--
compound: Cc1occc1-c1ncc(OC[C@@H](N)Cc2c[nH]c3ccccc23)cc1-c1ccc2[nH]nc(C)c2c1.O=C(O)C(F)(F)F
target or system: PIK4CB
assay metric: %Inh
value observed: 0

Report %Inh for O=C(Nc1cccc(Oc2ccc3nc(NC(=O)C4CC4)cn3n2)c1)c1ccccc1C(F)(F)F please.
0

# iterate: COC(=O)Nc1nc2ccc(Oc3ccc(NC(=O)Nc4cc(C(F)(F)F)ccc4F)cc3)cc2n1C.Cl
0

# iterate: CN(c1ccc(NC(=O)Nc2cc(C(F)(F)F)ccc2F)cc1)c1ccnc(Nc2ccc(S(N)(=O)=O)cc2)n1
0

# iterate: Cl.Cl.NCC(NCc1ccc(-c2ccnc3[nH]ccc23)s1)c1ccccc1 (stereo not shown)
4

# iterate: CC(C)(C)c1ccc2nccc(Nc3cccc(O)c3)c2c1
0
